Numbers sourced from PubChem BioAssay (NCATS).

Assay: HEK-293 Cancer Cell Toxicity qHTS against the NCATS CANVASS Library (AID 1347355); further: nearly all actives have a fitted effect of over 65% in size
Details: HEK-293 viability, CellTiter-Glo luminescence, 72 h; series mostly up to 46.1 µM
Text: Natural products and their derivatives continue to be wellsprings of nascent therapeutic potential. […] To address this issue, the Canvass library of natural products was assembled (https://tripod.nih.gov/canvass), in collaboration with academic and industry researchers, for quantitative high-throughput screening (qHTS) across a diverse set of cell-based and biochemical assays. […]
Records with an inconclusive call do not appear. Calls of active or inactive are those of the source. The call rests on the fitted dose curve; in most records, active means well fitted cell-killing curve with a large enough effect; inconclusive means small, poorly fitted or top-dose-only effect; inactive means flat fitted curve, though single readings scatter.
Your response should consist of one outcome taken from active, inactive

compound	discrete.label
CCCc1c2c([nH]c(=O)c1C)C(=O)c1[nH]c(=O)c(C)c(CCC)c1C2=O	inactive
C=C1C[C@H]2O[C@@H]3[C@@H]4[C@H](CC[C@@](C)(O)[C@@H]42)[C@H](C)COC3(C)[C@@H](OC(=O)CCCCCCC)CC1=O (stereo not given in full)	active
C=CC(C)(C)C(=O)[C@@H](C)[C@@H]1CC[C@@](C)(C=C)O1	inactive
C=C(C)C(=O)O[C@H]1C[C@@]2(C)OC(=CC2=O)/C(C)=C\[C@H]2OC(=O)C(=C)[C@H]12	active

Here is the next item to consider.
Data request: What is the recorded call for this compound in the test? `Cc1cc(O)cc2c1C(=O)c1c(O)cc(O)cc1C2=O`
Data returned: inactive
